The reported measurements were obtained from patent US20130059840A1.

Test System: Cathepsin D (UniProt P07339)
pKi: −log10 of the molar value.
Measured Attribute: pKi

For reference, reported pKi for "Cc1csc([C@H]2CCCN2C(=O)c2cc(C(=O)N[C@@H](Cc3cccc(F)c3)[C@H](O)[C@H]3CCCN3)cc(N3CCCS3(=O)=O)c2)n1" stands at < 6.30
